Sourced from patent US11427548B2

# study.system: Androgen Receptor (Homo sapiens)
# Construct: endogenous in cells; host or cells: VCaP cells
# procedure.summary: Androgen Receptor ELISA assay (PathScan AR ELISA) in VCaP cells: AR degradation, Dmax and DC50
# Type: cell-based
# condition.label: VCaP, highest percentage of Androgen Receptor degradation observed, VCaP cells (Table 32); read-out: VCaP Dmax (%)
result.type: Dmax

Examples with their reported Dmax follow.
{"smiles.representation": "CC(C)(C)[C@H](NC(=O)COCCCCOc1ccc(C(=O)N[C@H]2C(C)(C)[C@H](Oc3ccc(C#N)c(Cl)c3)C2(C)C)cc1)C(=O)N1C[C@H](O)C[C@H]1C(=O)NCc1ccc(C#N)cc1", "Dmax": "> 71%"}
{"smiles.representation": "Cc1ncoc1-c1ccc(CNC(=O)[C@@H]2C[C@@H](O)CN2C(=O)[C@@H](NC(=O)COCCOc2ccc(Oc3ccc(C(=O)N[C@H]4C(C)(C)[C@H](Oc5ccc(C#N)c(Cl)c5)C4(C)C)cc3)cc2)C(C)(C)C)cc1", "Dmax": "> 71%"}
{"smiles.representation": "CC(C)(C)[C@H](NC(=O)COCCCCOc1ccc(C(=O)N[C@H]2C(C)(C)[C@H](Oc3ccc(C#N)c(Cl)c3)C2(C)C)cc1)C(=O)N1C[C@H](O)C[C@H]1C(=O)NCc1ccc(Cl)cc1", "Dmax": "51 to 70%"}
{"smiles.representation": "Cc1ncsc1-c1ccc(CNC(=O)[C@@H]2C[C@@H](O)CN2C(=O)[C@@H](NC(=O)COCCCCCOc2ccc(C(=O)N[C@H]3C(C)(C)[C@H](Oc4ccc(C#N)c(Cl)c4)C3(C)C)cc2)C(C)(C)C)cc1", "Dmax": "> 71%"}
{"smiles.representation": "Cc1ncsc1-c1ccc(CNC(=O)[C@@H]2C[C@@H](O)CN2C(=O)[C@@H](NC(=O)COCCCCOc2ccc(C(=O)N[C@H]3C(C)(C)[C@H](Oc4ccc(C#N)c(Cl)c4)C3(C)C)cc2)C(C)(C)C)cc1", "Dmax": "> 71%"}
{"smiles.representation": "Cc1ncsc1-c1ccc([C@H](C)NC(=O)[C@@H]2C[C@@H](O)CN2C(=O)[C@@H](NC(=O)COCCCCOc2ccc(C(=O)N[C@H]3C(C)(C)[C@H](Oc4ccc(C#N)c(Cl)c4)C3(C)C)cc2)C(C)(C)C)cc1", "Dmax": "> 71%"}

Continue with the next compound.
Param readout= Dmax; system= Androgen Receptor (Homo sapiens); entry= Cc1ncsc1-c1ccc(CNC(=O)[C@@H]2C[C@@H](O)CN2C(=O)[C@@H](NC(=O)COCCCC[C@@H](C)Oc2ccc(C(=O)N[C@H]3C(C)(C)[C@H](Oc4ccc(C#N)c(Cl)c4)C3(C)C)cc2)C(C)(C)C)cc1 ; returns value.
> 71%

---

# study.system: Androgen Receptor (Homo sapiens, UniProt P10275)
# Construct: endogenous in cells; host or cells: VCaP cells
# Sequence (P10275 whole entry): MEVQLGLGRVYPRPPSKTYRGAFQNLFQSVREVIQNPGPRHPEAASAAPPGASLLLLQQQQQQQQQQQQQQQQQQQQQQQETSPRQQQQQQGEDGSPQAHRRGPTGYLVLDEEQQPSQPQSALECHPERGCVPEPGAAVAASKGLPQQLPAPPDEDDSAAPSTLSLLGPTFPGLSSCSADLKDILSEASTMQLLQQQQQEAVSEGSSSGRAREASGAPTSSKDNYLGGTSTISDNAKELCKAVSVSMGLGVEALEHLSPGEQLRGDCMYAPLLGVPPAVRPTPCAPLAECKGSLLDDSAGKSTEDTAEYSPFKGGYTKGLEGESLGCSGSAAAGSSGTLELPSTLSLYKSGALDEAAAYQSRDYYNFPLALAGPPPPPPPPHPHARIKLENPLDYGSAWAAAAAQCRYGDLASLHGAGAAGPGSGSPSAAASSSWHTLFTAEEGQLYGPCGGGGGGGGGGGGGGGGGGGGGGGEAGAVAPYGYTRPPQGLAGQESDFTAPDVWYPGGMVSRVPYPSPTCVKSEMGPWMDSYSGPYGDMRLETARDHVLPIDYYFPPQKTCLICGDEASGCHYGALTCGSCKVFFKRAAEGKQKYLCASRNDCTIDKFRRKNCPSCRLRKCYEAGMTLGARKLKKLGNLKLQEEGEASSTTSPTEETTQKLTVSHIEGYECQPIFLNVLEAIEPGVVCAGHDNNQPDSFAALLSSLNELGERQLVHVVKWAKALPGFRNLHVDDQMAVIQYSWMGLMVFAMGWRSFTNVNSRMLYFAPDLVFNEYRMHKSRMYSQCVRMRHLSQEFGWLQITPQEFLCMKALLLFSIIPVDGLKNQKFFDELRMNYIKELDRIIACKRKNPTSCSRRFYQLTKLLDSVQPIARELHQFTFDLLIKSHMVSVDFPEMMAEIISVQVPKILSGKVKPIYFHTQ
# procedure.summary: Androgen Receptor ELISA assay (PathScan AR ELISA) in VCaP cells: AR degradation, Dmax and DC50
# Type: cell-based
# condition.label: VCaP cells; Table 35; read-out: VCaP DC50
result.type: DC50

{"smiles.representation": "CC(C)(C)[C@H](NC(=O)COCCCCOc1ccc(C(=O)N[C@H]2C(C)(C)[C@H](Oc3ccc(C#N)c(Cl)c3)C2(C)C)cc1)C(=O)N1C[C@H](O)C[C@H]1C(=O)NCc1ccc(-n2cccn2)cc1", "DC50": "< 50 nM"}

Continue with the next compound.
Param readout= DC50; system= Androgen Receptor (Homo sapiens, UniProt P10275); entry= C[C@H](NC(=O)[C@@H]1C[C@@H](O)CN1C(=O)[C@@H](NC(=O)COCCCCOc1ccc(C(=O)N[C@H]2C(C)(C)[C@H](Oc3ccc(C#N)c(Cl)c3)C2(C)C)cc1)C(C)(C)C)c1ccc(Cl)cc1 ; returns value.
< 50 nM

---

# study.system: Androgen Receptor (Homo sapiens, UniProt P10275)
# Construct: endogenous in cells; host or cells: VCaP cells
# procedure.summary: Androgen Receptor ELISA assay (PathScan AR ELISA) in VCaP cells: AR degradation, Dmax and DC50
# Assay type: cell-based
# condition.label: VCaP, read-out: VCaP Dmax (%)
Measured Dmax of individual entries

{"smiles.representation": "CC(C)(C)[C@H](NC(=O)COCC#CC#CCOc1ccc(N2C(=S)N(c3ccc(C#N)c(C(F)(F)F)c3)C(=O)C2(C)C)cc1F)C(=O)N1C[C@H](O)C[C@H]1C(=O)NCc1ccc(-c2cnco2)cc1", "study.system": "Androgen Receptor (Homo sapiens, UniProt P10275)", "Dmax": "51 to 70%"}

Continue with the next compound.
For the compound CC(C)(C)[C@H](NC(=O)COCCCCOc1ccc(-c2ccc(N3C(=S)N(c4ccc(C#N)c(C(F)(F)F)c4)C(=O)C3(C)C)cc2)cc1)C(=O)N1C[C@H](O)C[C@H]1C(=O)NCc1ccc(-c2ocnc2Cl)cc1 , what Dmax is on record?
51 to 70%

---

# study.system: Androgen Receptor (Homo sapiens)
# Construct: endogenous in cells; host or cells: VCaP cells
# procedure.summary: Androgen Receptor ELISA assay (PathScan AR ELISA) in VCaP cells: AR degradation, Dmax and DC50
# Type: cell-based
# condition.label: VCaP, VCaP cells; Table 35; read-out: VCaP Dmax (%)
result.type: Dmax

Examples with their reported Dmax follow.
{"molecule": "CC(C)[C@H](NC(=O)COCCCCCNc1ccc(C(=O)N[C@H]2C(C)(C)[C@H](Oc3ccc(C#N)c(Cl)c3)C2(C)C)cc1)C(=O)N1C[C@H](O)C[C@H]1C(=O)NCc1ccc(C#N)cc1 [Example 520]", "experimental.value": "26 to 50%"}
{"molecule": "CC(C)(C)[C@H](NC(=O)COCCCCCNc1ccc(C(=O)N[C@H]2C(C)(C)[C@H](Oc3ccc(C#N)c(Cl)c3)C2(C)C)cc1)C(=O)N1C[C@H](O)C[C@H]1C(=O)NCc1ccc(-c2nnc[nH]2)cc1 [Example 528]", "experimental.value": "51 to 70%"}

For the molecule Cc1ncsc1-c1ccc(CNC(=O)[C@@H]2C[C@@H](O)CN2C(=O)[C@@H](NC(=O)COCCNc2ccc(-c3ccc(C(=O)N[C@H]4C(C)(C)[C@H](Oc5ccc(C#N)c(Cl)c5)C4(C)C)cc3)cn2)C(C)(C)C)nc1 [Example 446] , what Dmax is on record?
26 to 50%

---

# procedure.summary: PROTAC prodrug oral pharmacokinetics in CD-1 mice
# Format: in vivo
# condition.label: male, mouse, plasma, 10 mg/kg, 10 mpk PO, vehicle ESP-4, prodrug measured, read-out: Plasma Exposure Prodrug AUC
result.type: AUC (ng·h/mL)

{"smiles.representation": "Cc1ncsc1-c1ccc([C@H](C)NC(=O)[C@@H]2C[C@@H](OC(=O)[C@@H](N)C(C)C)CN2C(=O)[C@@H](NC(=O)COCCCCCNc2ccc(C(=O)N[C@H]3C(C)(C)[C@H](Oc4ccc(C#N)c(Cl)c4)C3(C)C)cc2)C(C)(C)C)cc1", "experimental.value": 49}

[P] Cc1ncsc1-c1ccc([C@H](CN(C)C)NC(=O)[C@@H]2C[C@@H](O)CN2C(=O)[C@@H](NC(=O)COCCCCCOc2ccc(C(=O)N[C@H]3C(C)(C)[C@H](Oc4ccc(C#N)c(Cl)c4)C3(C)C)cc2)C(C)(C)C)cc1
[Q] Cc1ncsc1-c1ccc([C@H](C)NC(=O)[C@@H]2C[C@@H](O)CN2C(=O)[C@@H](NC(=O)COCCCCCNc2ccc(C(=O)N[C@H]3C(C)(C)[C@H](Oc4ccc(C#N)c(C(F)(F)F)n4)C3(C)C)cc2)C(C)(C)C)cc1
Please tell me which of the two, P or Q , has the higher reported AUC value. Please identify the chosen entry by its label.
P

---

Measured Dmax of individual entries
# study.system: Androgen Receptor (Homo sapiens, UniProt P10275)
# Construct: endogenous in cells; host or cells: VCaP cells
# procedure.summary: Androgen Receptor ELISA assay (PathScan AR ELISA) in VCaP cells: AR degradation, Dmax and DC50
# Type: cell-based
# condition.label: VCaP, VCaP cells; Table 36; read-out: VCaP Dmax (%)

Examples with their reported Dmax follow.
{"compound": "Cc1ncsc1-c1ccc([C@H](C)NC(=O)[C@@H]2C[C@@H](O)CN2C(=O)[C@@H](NC(=O)CC2(CN3CCN(c4ccc(C(=O)N[C@H]5C(C)(C)[C@H](Oc6ccc(C#N)c(Cl)c6)C5(C)C)cn4)CC3)COC2)C(C)(C)C)cc1", "result.type": "Dmax", "experimental.value": "26 to 50%"}
{"compound": "Cc1nc(-c2ccn(C[C@H](C)NC(=O)c3cc(COCCCN4CCN(CC(=O)N[C@H](C(=O)N5C[C@H](O)C[C@H]5C(=O)N[C@@H](C)c5ccc(-c6scnc6C)cc5)C(C)(C)C)CC4)[nH]n3)n2)ccc1C#N", "result.type": "Dmax", "experimental.value": "26 to 50%"}
{"compound": "Cc1nc(O[C@H]2C(C)(C)[C@H](NC(=O)c3ccc(N4CCN(CCCN5CCN(CC(=O)O[C@H](C(=O)N6C[C@H](O)C[C@H]6C(=O)N[C@@H](C)c6ccc(-c7scnc7C)cc6)C(C)(C)C)CC5)CC4)nc3)C2(C)C)ccc1C#N", "result.type": "Dmax", "experimental.value": "26 to 50%"}
{"compound": "Cc1ncsc1-c1ccc([C@H](C)NC(=O)[C@@H]2C[C@@H](O)CN2C(=O)[C@@H](NC(=O)COCCCCCC2(c3ccc(C(=O)N[C@H]4C(C)(C)[C@H](Oc5ccc(C#N)c(Cl)c5)C4(C)C)cc3)COC2)C(C)(C)C)cc1", "result.type": "Dmax", "experimental.value": "> 71%"}
{"compound": "Cc1ncsc1-c1ccc([C@H](C)NC(=O)C2C[C@@H](O)CN2C(=O)[C@@H](NC(=O)CCCC2(N3CCN(c4ccc(C(=O)N[C@H]5C(C)(C)[C@H](Oc6ccc(C#N)c(Cl)c6)C5(C)C)cn4)CC3)COC2)C(C)(C)C)cc1 (stereo partly drawn)", "result.type": "Dmax", "experimental.value": "26 to 50%"}

For the compound Cc1ncsc1-c1ccc(CNC(=O)[C@@H]2C[C@@H](O)CN2C(=O)[C@H](C(C)C)N2Cc3ccc(N4CCN(CCCc5ccc(C(=O)N[C@H]6C(C)(C)[C@H](Oc7ccc(C#N)c(Cl)c7)C6(C)C)cc5)CC4)cc3C2=O)cc1 , what Dmax is on record?
< 25%
